# assay.procedure: NCI Yeast Anticancer Drug Screen. Data for the bub3 strain (AID 167)
# cond: S. cerevisiae bub3 mutant strain, at 50.0 µM
The panel holds about 79,000 compounds, 15% with a hit somewhere; the sample as a whole holds those more often. Activity calls are given as the source filed them. Cut-off read from the data, not from the text of the source: active = growth inhibition above about 70%; inactive = the rest.
Mark one answer only. Choices: True = active, False = inactive

Solved cases below.
O=C(Nc1ccc(F)cc1)ON=C1CCCCC1	True
Clc1cc(Cl)c(NN=C(c2ccccc2)c2ccccc2)c(Cl)c1	False

Please look at the following molecule next.
Hi, sorry to bother you, what did the test record for Cc1c2cc(Cl)ccc2cc2c1ccc1ccccc12 ?
True

---

# assay.procedure: NCI Yeast Anticancer Drug Screen. Data for the mec2-1 strain (AID 157)
# cond: S. cerevisiae mec2-1 strain, at 5.0 µM (retest, dose inferred, filed as 0.5)
Compounds without any hit were thinned out: in the full panel of roughly 79,000, 15% have a hit. The source made the active and inactive calls. Cut-off read from the data, not from the text of the source: active = growth inhibition above about 70%; inactive = the rest.
API: response.call in y for active, n for inactive

C/C(=N\NC(=S)NCc1ccccc1)c1nccnc1C	n
CCCCCCCCCCCC(=O)OCC1OC(n2cc(F)c(=O)[nH]c2=O)C(N)C(O)C1O (configuration not stated)	n
O=C(c1cccc(Cl)c1)c1ccc2ccccc2c1C(=O)O	n
O=C(OCC1OC(c2nn[nH]n2)C(OC(=O)c2ccccc2)C1OC(=O)c1ccccc1)c1ccccc1 (configuration not stated)	n
CCCCCCCCCCCCCCNCc1ccccc1	y
CCOC(=O)C(Br)C(Br)c1cccc([N+](=O)[O-])c1 (configuration not stated)	y
CN(C)c1nc(NNS(=O)(=O)c2ccc(N)cc2)nc(N(C)C)n1	n
CC(C)c1ccc2nc3ccc(C(=O)NCCN4CCN(c5ccccc5)CC4)cn3c(=O)c2c1	n

Okay, now this compound:
Record lookup: outcome of this test for Cc1ccc(/C=C2\CN(C)CC3=C2NC(=S)NC3c2ccc(C)cc2)cc1 (configuration not stated) ?
n

---

Catalogue of growth inhibition readings, one per entry.
# assay.procedure: NCI Yeast Anticancer Drug Screen. Data for the cln2 rad14 strain (AID 165);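 note: 0% = growth equal to vehicle treated cultures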
# cond: S. cerevisiae cln2 rad14 strain, at 5.0 µM (retest, dose inferred, filed as 0.5), stronger effect = higher value
About 79,000 compounds went through this panel and 15% of them were active in at least one assay; those are over-represented in the sample as a whole. Active and inactive are the calls of the source. Cut-off read from the data, not from the text of the source: active = growth inhibition above about 70%; inactive = the rest.

These solved cases illustrate the format of a correct answer.
Cc1ccc(O)c2c(NCCCCCCNc3cc(C)[n+](C)c4c(C)ccc(O)c34)cc(C)[n+](C)c12	5% (inactive)
S=C(NC(=S)Nc1ccc(Cl)cc1)Nc1ccc(Cl)cc1	-9% (inactive)
CN(C)c1ccc(C(c2cc3c(cc2O)OCO3)N2CCCCC2)cc1 (stereo unspecified)	-1% (inactive)
O=C(c1ccco1)N(C(=S)N1CCN(c2ccccn2)CC1)c1ccccc1	31% (inactive)
CC(=Nc1ccc(N(C)C)cc1)c1ccccc1	-26% (inactive)

Give the measured growth inhibition of O=CNc1ccc2c(c1)Cc1cc(NC=O)ccc1-2 .
-34% (inactive)

I'd like to know its growth inhibition. The molecule in question is Cc1cccc(C[P+](c2ccccc2)(c2ccccc2)c2ccccc2)c1
32% (inactive)

Need growth inhibition of CS(=O)(=O)OC1COC2C(I)COC12 (stereo unspecified) , thanks.
5% (inactive)

// growth inhibition lookup, key: CC1=C(/C=C/C(C)=N/NC(N)=S)C(C)(C)CCC1
15% (inactive)

Request the reported growth inhibition associated with O=C(CCN1CCCCC1)/C(=C\c1ccc(Cl)cc1)c1ccccc1
14% (inactive)

For the molecule shown here, CCN(CC)Cc1c(-c2ccccc2)oc(-c2ccccc2)c1CN(CC)CC , give the reported growth inhibition.
-2% (inactive)

These entries and their values trace back to PubChem BioAssay (NCI).
